Tested on: HPPD polypeptides
Assay: coupled HPPD activity assay: turnover and residual turnover in crude extracts
Type: biochemical, Pseudomonas fluorescens
Conditions: absence of Cmpd. 1; high substrate concentration; kinetic changes in absorbance (OD) at 320 nm, 30 min
Description: The activity of HPPD polypeptides was determined in absence or presence of HPPD inhibitors using the coupled HPPD activity assay (FIG. 1). […] Residual turnover were determined according to Example 3 by measuring total change in signal in the presence and absence of Cmpd. […]
Field: Turnover. Provide a value for each of the molecules that follow.
Give bare numbers.

Reference set (3 entries):
18 (protein, mutant HPPD polypeptide) MADLYENPMGLMGFEFIEFASPTPGTLEPIFEIMGFTKVATHRSKNVHLYRQGEINLILNNEPNSIASYFAAEHGPSVCGMAFRVKDSQKAYNRALELGAQPIHIDTGPMELNLPAIKGIGGAPLYLIDRFGEGSSIYDIDFVYLEGVERNPVGAGLKVIDHLTHNVYRGRMVYWANFYEKLFNFREARYFDIKGEYTGLTSKAMSAPDGMIRIPLNEESSKGAGQIEEFLMQFNGEGIQHVAFLTDDLVKTWDALKKIGMRFMTAPPDEYYEMLEGRLPDHGEPVDQLQARGILLDGSSVEGDKRLLLQIFSETLMGPVFFEFIQRKGDDGFGPDSFKVLFESVERDQVRRGVLTAD; 0.134
2 (protein, mutant HPPD polypeptide) MADLYENPMGLMGFEFIEFASPTPGTLEPIFEIMGFTKVATHRSKNVHLYRQGEINLILNNEPNSIASYFAAEHGPSVCGMAFRVKDSQKAYNRALELGAQPIHIDTGPMELNLPAIKGIGGAPLYLIDRFGEGSSIYDIDFVYLEGVERNPVGAGLKVIDHLTHNVYRGRMVYWANFYEKLFNFREARYFDIKGEYTGLTSKAMSAPDGMIRIPLNEESSKGAGQIEEFLMQFNGEGIQHVAFLTDDLVKTWDALKKIGMRFMTAPPDTYYEMLEGRLPDHGEPVDQLQARGILLDGSSVEGDKRLLLQIFSETLMGPVFFEFIQRKGDDGFGPWNFAQLFESIERDQVRRGVLTAD; 0.060
68 (protein, mutant HPPD polypeptide) MADLYENPMGLMGFEFIEFASPTPGTLEPIFEIMGFTKVATHRSKNVHLYRQGEINLILNNEPNSIASYFAAEHGPSVCGMAFRVKDSQKAYNRALELGAQPIHIDTGPMELNLPAIKGIGGAPLYLIDRFGEGSSIYDIDFVYLEGVERNPVGAGLKVIDHLTHNVYRGRMVYWANFYEKLFNFREARYFDIKGEYTGLTSKAMSAPDGMIRIPLNEESSKGAGQIEEFLMQFNGEGIQHVAFLTDDLVKTWDALKKIGMRFMTAPADSYYEMLEGRLPDHGEPVDQLQARGILLDGSSVEGDKRLLLQIFSEQLMGPVFFEFIQRKGDDGFGPHSFKVLFEQMERDQVRRGVLTAD; 0.346

Could you now consider this next molecule?
Problem: Item under review: 63 (protein, mutant HPPD polypeptide) MADLYENPMGLMGFEFIEFASPTPGTLEPIFEIMGFTKVATHRSKNVHLYRQGEINLILNNEPNSIASYFAAEHGPSVCGMAFRVKDSQKAYNRALELGAQPIHIDTGPMELNLPAIKGIGGAPLYLIDRFGEGSSIYDIDFVYLEGVERNPVGAGLKVIDHLTHNVYRGRMVYWANFYEKLFNFREARYFDIKGEYTGLTSKAMSAPDGMIKIALNEESSKGAGQIEEFLMQFNGEGIQHVAFLTDDLVKTWDALKKIGMRFMTAPADSYYEMLEGRLPDHGEPVDQLQARGILLDGSSVEGDKRLLLQIFSETLMGPVFFEFIQRKGDDGFGPHSFKVLFEQIERDQVRRGVLTAD . Reported Turnover?
Result: 0.23

Recorded values, source patent US11180770B2.
